target: PDK4 (Homo sapiens, UniProt Q16654); assay: PDK4-inhibitory activity by off-chip mobility shift assay (phosphorylation of PDH E1 subunit); settings: phosphorylation of E1 subunit of PDH, 100 μM ATP, human recombinant PDK
Sequence (Q16654 whole entry): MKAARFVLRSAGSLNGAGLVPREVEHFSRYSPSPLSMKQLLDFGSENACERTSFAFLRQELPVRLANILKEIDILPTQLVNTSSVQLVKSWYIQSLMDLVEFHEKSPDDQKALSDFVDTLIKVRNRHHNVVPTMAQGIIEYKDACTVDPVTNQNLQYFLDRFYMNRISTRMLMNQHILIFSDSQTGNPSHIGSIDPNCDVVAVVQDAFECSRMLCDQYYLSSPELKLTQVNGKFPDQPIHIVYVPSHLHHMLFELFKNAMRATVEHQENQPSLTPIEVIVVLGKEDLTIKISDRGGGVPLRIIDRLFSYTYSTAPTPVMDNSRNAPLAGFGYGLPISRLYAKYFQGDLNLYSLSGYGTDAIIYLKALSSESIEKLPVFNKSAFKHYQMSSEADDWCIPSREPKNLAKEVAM
Measured IC50 of individual entries
Quick note: give the figure in µM, leave out the unit.

# count of solved cases: 3
CC1(C)CCC2=C(O1)c1ccccc1C(=O)C2=O [KIS24, β-lapachone] | 3
Cc1cc2c(C(C)C)c(O)c(O)c(C=O)c2c(O)c1-c1c(C)cc2c(C(C)C)c(O)c(O)c(C=O)c2c1O [KIS7, gossypol] | 4
C[C@H]1COC2=C1C(=O)C(=O)c1c2ccc2c1CCCC2(C)C [KIS37, cryptotanshinone] | 11

Now, please, on to the next molecule.
Supply recorded IC50 for Cc1cc2c(C(C)C)c(O)c(O)c(/C=N/c3ccccc3C(=O)O)c2c(O)c1-c1c(C)cc2c(C(C)C)c(O)c(O)c(/C=N/c3ccccc3C(=O)O)c2c1O [KIS28] here.
13.2
